Test system: Bacteroides uniformis
test-method-notes: growth AUC relative to DMSO control (median of replicates) (fraction); higher = more growth (less inhibition), active = hit call of the paper
setup-conditions: 20 µM; 24 h
Entries get a class label from measured growth AUC. See ranges: lower bin (below 0.9), middle bin (0.9 to below 1), upper bin (1 or more)

compound	assigned-class
COc1ccc(-c2ccccc2)cc1NNC(=O)OC(C)C	middle bin
CCCN(CCOc1c(Cl)cc(Cl)cc1Cl)C(=O)n1ccnc1	lower bin
O=C(O)c1ccc(Cl)nc1	upper bin
CCCCCCCCn1sccc1=O	lower bin

// next entry
Which class does `CN(C)S(=O)(=O)N(SC(F)(Cl)Cl)c1ccccc1` fall in?
upper bin

---

Tested on: Streptococcus salivarius
test-method-notes: growth AUC relative to DMSO control (median of replicates) (fraction); higher = more growth (less inhibition), active = hit call of the paper
setup-conditions: 20 µM; 24 h
endpoint-label: growth AUC
Simply state the number, no unit and no words.

molecule	growth AUC
CS(=O)(=O)c1ccc(C(=O)C2C(=O)CCCC2=O)c(Cl)c1COCC(F)(F)F	0.974
CC(C)N(C(=O)CCl)c1ccccc1	1.04

Output growth AUC of CC(C)(C)C(O)C(Cc1ccc(Cl)cc1Cl)n1cncn1 (mixture of isomers)
0.974

Respond only with growth AUC recorded for `CCOP(=O)(Sc1ccccc1)Sc1ccccc1`
0.948

Quote growth AUC reported for `O=[N+]([O-])c1cc(Cl)ccc1Cl` please.
0.981

---

System: Fusobacterium nucleatum subsp. animalis
test-method-notes: growth AUC relative to DMSO control (median of replicates) (fraction); higher = more growth (less inhibition), active = hit call of the paper
setup-conditions: 20 µM; 24 h
Note to self: values exactly at 1 are true. So growth AUC at or above 1 is true, below is false.

molecule	assigned-class
CC1(C)[C@H](C=C(Cl)Cl)[C@H]1C(=O)OCc1c(F)c(F)cc(F)c1F	true
Nc1ccncc1	false

Now turn to the next molecule.
Hello, I need to know if O=c1oc2ccccc2c(O)c1C(CC(O)c1ccc(-c2ccc(Br)cc2)cc1)c1ccccc1 (stereo unspecified) has measured growth AUC not below 1. Thanks!
false

---

Tested on: Lactobacillus paracasei
test-method-notes: growth AUC relative to DMSO control (median of replicates) (fraction); higher = more growth (less inhibition), active = hit call of the paper
setup-conditions: 20 µM; 24 h
Here the recorded growth AUC is given for each entry.
Please give the numeric answer without any surrounding text.

Previously resolved entries follow.
compound	growth AUC
CCOC(=O)CCN(SN(C)C(=O)Oc1cccc2c1OC(C)(C)C2)C(C)C	1.01
CCOP(=S)(OCC)Oc1cc(Cl)c(Br)cc1Cl	1
COCC(=O)N(c1c(C)cccc1C)[C@H](C)C(=O)OC	1
Cc1c(N)cccc1N	0.991
Cc1cc(Cl)ccc1O[C@H](C)C(=O)O	0.979

For the compound CCOP(=O)(SC(C)CC)SC(C)CC (configuration not stated) , report growth AUC.
0.989

Annotate the compound `CCOP(=S)(OCC)Oc1cnccn1` with its measured growth AUC.
1.01

---

Test system: Bacteroides stercoris
test-method-notes: growth AUC relative to DMSO control (median of replicates) (fraction); higher = more growth (less inhibition), active = hit call of the paper
setup-conditions: 20 µM; 24 h
endpoint-label: growth AUC
The answer should be written as a number, with no unit following it.

Consider the following illustrative entries.
molecule	growth AUC
COC(=O)COc1ccc(Cl)cc1Cl	0.853
OC(Cc1ccccc1Cl)(Cn1cncn1)C1(Cl)CC1 (configuration not stated)	0.966
OC[C@@H](O)[C@H]1O[C@@H]2O[C@H](C(Cl)(Cl)Cl)O[C@@H]2[C@H]1O (mixture of isomers)	0.952
CCOC(=O)/C=C(C)/C=C/C[C@@H](C)CCCC(C)C	1.12
C[C@@H](Oc1ccc(Oc2cnc3cc(Cl)ccc3n2)cc1)C(=O)O	1.29
CNC(=O)Oc1cccc2c1OC(C)(C)C2	1.02

Note down growth AUC recorded for OCC(O)CCl (configuration not stated)
1.02

Identify growth AUC associated with the molecule CCC1COC(Cn2cncn2)(c2ccc(Cl)cc2Cl)O1 (configuration not stated)
0.938

Please look at this molecule and report its growth AUC: `CNC(=O)Oc1cccc(N=CN(C)C)c1.Cl`
1.12

---

System: Bacteroides stercoris
test-method-notes: growth AUC relative to DMSO control (median of replicates) (fraction); higher = more growth (less inhibition), active = hit call of the paper
setup-conditions: 20 µM; 24 h
Listed here are compounds together with their documented growth AUC.
Please respond with just the number, no unit label.

compound	growth AUC
c1ccc2c(c1)-c1cccc3cccc-2c13	0.98
COP(=S)(OC)SCC(=O)N(c1ccc(Cl)cc1)C(C)C	1.03
Cc1cc(C)nc(Nc2ccccc2)n1	0.987
COP(=S)(Oc1cc(Cl)c(Br)cc1Cl)c1ccccc1 (stereo unspecified)	1.44
Nc1ccc(Cc2ccc(N)c(Cl)c2)cc1Cl	0.931

Consider the additional compound presented here.
Please give measured growth AUC of the following entry: CC(Oc1ccc(Cl)cc1Cl)C(=O)O (stereo unspecified)
0.981

---

System: Bacteroides stercoris
test-method-notes: growth AUC relative to DMSO control (median of replicates) (fraction); higher = more growth (less inhibition), active = hit call of the paper
setup-conditions: 20 µM; 24 h
MET means recorded growth AUC is 1 or above; NOT MET means it is below 1.

compound	assigned-class
O=[N+]([O-])c1ccccc1	MET

Please check the record `CCOP(=S)(OCC)Oc1cnc2ccccc2n1` and state if its growth AUC is at or above 1.
NOT MET

Answer whether growth AUC of `O=P(OCCCl)(OCCCl)OCCCl` is greater than or equal to 1.
NOT MET

Determine whether measured growth AUC meets or exceeds 1 for `N#Cc1nn(-c2c(Cl)cc(C(F)(F)F)cc2Cl)c(N)c1S(=O)(=O)C(F)(F)F`
MET

State whether the measured growth AUC reaches 1, counting equality as reaching it, for `Cc1cccc(C)c1N`
MET

Reported growth AUC at or above 1? `CCCN(CC1CC1)c1c([N+](=O)[O-])cc(C(F)(F)F)cc1[N+](=O)[O-]`
MET

---

Tested on: Clostridium difficile
test-method-notes: growth AUC relative to DMSO control (median of replicates) (fraction); higher = more growth (less inhibition), active = hit call of the paper
setup-conditions: 20 µM; 24 h
Listed here are compounds together with their documented growth AUC.
Kindly provide the number alone.

The examples below pair each entry with its known result.
compound	growth AUC
O=[N+]([O-])/N=C1\NCCN1Cc1ccc(Cl)nc1	0.99
[CH3][Hg][Cl]	0.902
CNC(=O)/C(=N\OC)c1ccccc1Oc1ccccc1	1.01
CC(=O)O.CC(=O)O.CC(=O)O.NC(N)=NCCCCCCCCNCCCCCCCCN=C(N)N	0.869
COCC(=O)N(c1c(C)cccc1C)N1CCOC1=O	0.983
Cc1cc(C(C#N)c2ccc(Cl)cc2)c(Cl)cc1NC(=O)c1cc(I)cc(I)c1O (centres undefined)	0.00624

State recorded growth AUC with Clostridium difficile, entry `CCOC(=O)CCN(SN(C)C(=O)Oc1cccc2c1OC(C)(C)C2)C(C)C` , no comment.
0.999

Specify the recorded growth AUC for `CCSCc1ccccc1OC(=O)NC` , system: Clostridium difficile.
0.972

Look up and report growth AUC, with Clostridium difficile as system, for `Cc1ccccc1C(=O)Nc1cccc(OC(C)C)c1`
0.984

Please report the measured growth AUC for `C1=Cc2cccc3cccc1c23` tested on Clostridium difficile.
1

Write growth AUC of COP(N)(=S)Oc1ccccc1C(=O)OC(C)C (centres undefined) ; system used: Clostridium difficile
0.993

Report its growth AUC with Clostridium difficile as the test system: CC(C)=CC1C(C(=O)OCc2cccc(Oc3ccccc3)c2)C1(C)C (mixture of isomers)
1.02

// fetch growth AUC for `COc1nc(C)nc(NC(=O)NS(=O)(=O)c2ccccc2Cl)n1` ; system: Clostridium difficile
1.02

---

Tested on: Parabacteroides distasonis
test-method-notes: growth AUC relative to DMSO control (median of replicates) (fraction); higher = more growth (less inhibition), active = hit call of the paper
setup-conditions: 20 µM; 24 h
endpoint-label: growth AUC
Just the number.

molecule	growth AUC
C=CCC1=C(C)C(OC(=O)C2C(C=C(C)C)C2(C)C)CC1=O (stereo unspecified)	0.846
COP(=S)(OC)Oc1ccc(SC)c(C)c1	0.915
COCC(C)N(C(=O)CCl)c1c(C)csc1C (stereo unspecified)	0.683
CC(C)=NOCCOC(=O)[C@@H](C)Oc1ccc(Oc2cnc3cc(Cl)ccc3n2)cc1	0.983
Cn1cc(-c2ccccc2)c(=O)c(-c2cccc(C(F)(F)F)c2)c1	0.999
CNC(=O)CSP(=S)(OC)OC	0.9
N#Cc1nn(-c2c(Cl)cc(C(F)(F)F)cc2Cl)c(N)c1S(=O)(=O)C(F)(F)F	0.904
COP(=S)(OC)Oc1nc(Cl)c(Cl)cc1Cl	0.937
CCOP(=S)(OCC)SCn1nnc2ccccc2c1=O	0.707
CNC(=O)Oc1cccc2c1OC(C)(C)O2	1.02

Give growth AUC for COCCOC(=O)C(C#N)(C(=O)c1ccccc1C(F)(F)F)c1ccc(C(C)(C)C)cc1 (stereo unspecified) tested on Parabacteroides distasonis.
0.723

Where do these numbers come from? They come from the supplement of paper PMC12669032.
